B1: library; a variant is named by its letters at N, in order (parent)
chain: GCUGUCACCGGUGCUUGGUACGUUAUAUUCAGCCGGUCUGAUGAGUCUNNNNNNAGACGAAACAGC

variants of: B1; assay: normalized RNA/DNA level without ligand (relative to sTRSVctl = 100) (log10 (% of sTRSVctl)); HEK293T overexpressing SLC46A1; higher = less ribozyme self-cleavage, higher mRNA level; conditions: without (6R,S)-folinic acid; ligand present: no
Decide by normalized RNA/DNA level without ligand (log10): equal to or exceeding 2 means t, less means f.

Example results:
CGUAUC t
GGGCCG t
ACGAUG f
UUAGAG f

Please check the record "AAGGCG" and state if its normalized RNA/DNA level without ligand (log10) is at or above 2. f

Then this variant: "ACGAUC" t

Then this variant: "CAUAAA" f

Then this variant: "CCCGUA" t

Then this variant: "GUAUGG" f

Then this variant: "UCUUCU" t

Then this variant: "GAUCCC" t
